Every entry's value here was drawn from patent US20170204182A1.

- subject-of-test: T1, phosphorylated human tau protein (human, UniProt P10636-8 1-441, limits assumed, S422 phosphorylation)
- T1 construct: also called pTau
- protocol-summary: SPR (BIAcore), captured antibody
Documented half-life (t1/2) across a set of binders

| binder | half-life (t1/2) |
| --- | --- |
| Rb86 variant: HC 001_IGHV3_23_04 / LC 006--IMGT_hVK_7_3 (antibody, V domains shown) VH: QQLVESGGGLVQPGGSLRLSCAASGFSLSSNAINWVRQAPGKGLEWVGYIAVSGNTYYASWAKGRFTISRDNSKNTLYLQMNSLRAEDTAVYYCGKSNIWGQGTLVTVSS VL: DIVLTQSPASLAVSPGQRATITCQSSQSVRTNKLAWFQQKPGQPPKRLIYSASTLDFGVPARFSGSGSGTDFTLTINPVEANDTANYYCLGYFDCSIADCVAFGGGTKVEIK | 4.38 min |
| Rb86 variant: HC 001_IGHV3_23_04 / LC 013--IMGT_hVK_1_17 (antibody, V domains shown) VH: QQLVESGGGLVQPGGSLRLSCAASGFSLSSNAINWVRQAPGKGLEWVGYIAVSGNTYYASWAKGRFTISRDNSKNTLYLQMNSLRAEDTAVYYCGKSNIWGQGTLVTVSS VL: DIQMTQSTSSLSASVGDRVTITCRASQGVRTNKLAWFQQKPGQPPKRLIYSASTLQSGVPSRFSGSGSGTEFTLTISSLQPEDFATYYCLGYFDCSIADCVAFGGGTKVEIK | 5.65 min |
| Rb86 variant: HC 001_IGHV3_23_04 / LC 012--IMGT_hVK_1_17 (antibody, V domains shown) VH: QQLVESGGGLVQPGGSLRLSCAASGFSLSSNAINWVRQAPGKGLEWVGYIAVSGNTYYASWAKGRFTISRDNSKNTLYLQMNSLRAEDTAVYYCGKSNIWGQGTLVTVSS VL: DIQMTQSPSSLSASVGDRVTITCRASQGVRTNKLAWFQQKPGQPPKRLIYSASTLQSGVPSRFSGSGSGTEFTLTISSLQPEDFATYYCLGYFDCSIADCVAFGGGTKVEIK | 4.67 min |
| Rb86 variant: HC 001_IGHV3_23_04 / LC 003--IMGT_hVK_4_1 (antibody, V domains shown) VH: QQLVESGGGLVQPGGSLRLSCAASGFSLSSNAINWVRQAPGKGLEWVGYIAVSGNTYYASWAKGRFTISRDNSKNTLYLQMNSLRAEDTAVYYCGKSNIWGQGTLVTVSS VL: AQVMTQSPDSLAVSLGERATINCKSSQSVRTNKLAWFQQKPGQPPKRLIYSASTLDSGVPDRFSGSGSGTDFTLTISSLQAEDVAVYYCLGYFDCSIADCVAFGGGTEVVVK | 4.76 min |
| Rb86 variant: HC 002--IMGT_hVH_3_23 / LC Rb86 (antibody, V domains shown) VH: QSVLESGGGLVQPGGSLRLSCAASGFSLSSNAINWVRQAPGKGLEWVGYIAVSGNTYYASWAKGRFTISRDNSKNTLYLQMNSLRAEDTAVYYCGKSNIWGPGTLVTVSS VL: AQVLTQTTSPVSAAVGSTVTISCQSSQSVRTNKLAWFQQKPGQPPKRLIYSASTLDFGVPSRFSASGSGTQFTLTISDVQCDDAATYYCLGYFDCSIADCVAFGGGTEVVVK | 8.41 min |
| Rb86 variant: HC 001_IGHV3_23_04 / LC 005--IMGT_hVK_4_1 (antibody, V domains shown) VH: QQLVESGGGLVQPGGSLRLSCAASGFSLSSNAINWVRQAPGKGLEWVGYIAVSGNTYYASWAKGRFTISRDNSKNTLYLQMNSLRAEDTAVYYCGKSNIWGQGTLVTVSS VL: DIVMTQSPDSLAVSLGERATINCKSSQSVRTNKLAWFQQKPGQPPKRLIYSASTLDSGVPDRFSGSGSGTDFTLTISSLQAEDVAVYYCLGYFDSSIADSVAFGGGTKVEIK | 1.71 min |
| Rb86 variant: HC 001_IGHV3_23_04 / LC 004--IMGT_hVK_4_1 (antibody, V domains shown) VH: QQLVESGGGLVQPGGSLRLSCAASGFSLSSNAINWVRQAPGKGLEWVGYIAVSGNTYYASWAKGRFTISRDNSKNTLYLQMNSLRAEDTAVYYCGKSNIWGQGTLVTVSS VL: DIVMTQSPDSLAVSLGERATINCKSSQSVRTNKLAWFQQKPGQPPKRLIYSASTLDSGVPDRFSGSGSGTDFTLTISSLQAEDVAVYYCLGYFDCSIADCVAFGGGTKVEIK | 3.44 min |
| Rb86 variant: HC Rb86 / LC 017--IMGT_hVK_1_17 (antibody, V domains shown) VH: QSVEESGGRLVTPGTPLTLTCTVSGFSLSSNAINWVRQAPGKGLEWIGYIAVSGNTYYASWAKGRFTISKASTTVDLKMTSPTAEDTGTYFCGKSNIWGPGTLVTVSL VL: DIQMTQSPSSLSASVGDRVTITCRSSQSVRTNKLAWFQQKPGQPPKRLIYSASTLDFGVPSRFSGSGSGTEFTLTISSLQPEDFATYYCLGYFDCSIADCVAFGGGTKVEIK | 23.2 min |
| Rb86 variant: HC 001_IGHV3_23_04 / LC 015--IMGT_hVK_1_17 (antibody, V domains shown) VH: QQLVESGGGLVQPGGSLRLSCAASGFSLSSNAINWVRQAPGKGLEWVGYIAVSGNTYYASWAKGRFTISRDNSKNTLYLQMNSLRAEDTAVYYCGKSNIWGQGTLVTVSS VL: DIQMTQSPSSLSASVGDRVTITCRASQGVRTNKLAWFQQKPGQPPKRLIYSASTLQSGVPSRFSGSGSGTEFTLTISSLQPEDFATYYCLGYFDSSIADSVAFGGGTKVEIK | 3.02 min |
| Rb86 variant: HC 001_IGHV3_23_04 / LC 014--IMGT_hVK_1_17 (antibody, V domains shown) VH: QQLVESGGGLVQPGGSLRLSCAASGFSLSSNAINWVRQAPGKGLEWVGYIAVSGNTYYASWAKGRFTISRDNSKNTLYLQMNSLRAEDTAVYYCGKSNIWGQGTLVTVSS VL: DIQMTQSPSSLSASVGDRVTITCRASQGVRTNKLAWFQQKPGQPPKRLIYSASTLQSGVPSRFSGSGSGTEFTLTISSLQSEDFATYYCLGYFDCSIADCVAFGGGTKVEIK | 5.08 min |
